Provenance of the data: the supplement of paper PMC8728848

Molecular target: Fuc(a1-2)Gal6S(b1-4)GlcNAc
Experiment: glycan array binding signal (z-score within array); higher = stronger binding
Conditions: glycan notation: IUPAC condensed, linker removed
This is one part of a sample in which the strongest signals are shown more often than they occur.
QUANTITY: glycan array binding signal (z-score)

# BINDER, RECORDED_NUMBER
rows = [
    ("LEA (Lycopersicon esculentum) (protein) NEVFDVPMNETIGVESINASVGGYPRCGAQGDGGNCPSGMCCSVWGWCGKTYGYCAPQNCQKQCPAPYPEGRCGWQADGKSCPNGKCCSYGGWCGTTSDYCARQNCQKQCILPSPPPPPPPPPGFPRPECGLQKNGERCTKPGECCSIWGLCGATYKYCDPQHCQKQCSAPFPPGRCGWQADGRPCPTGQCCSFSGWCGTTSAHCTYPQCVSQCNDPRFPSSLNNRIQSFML", -0.55),
    ("SLLPI (Homo sapiens), Q8IXA5 (protein) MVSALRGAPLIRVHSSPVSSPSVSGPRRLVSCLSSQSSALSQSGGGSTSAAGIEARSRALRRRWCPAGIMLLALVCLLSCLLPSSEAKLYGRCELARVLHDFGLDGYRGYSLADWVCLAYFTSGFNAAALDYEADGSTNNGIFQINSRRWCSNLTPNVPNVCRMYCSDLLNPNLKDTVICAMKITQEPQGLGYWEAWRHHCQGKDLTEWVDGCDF", 0.21),
    ("AAL (Aleuria aurantia), P18891 (protein) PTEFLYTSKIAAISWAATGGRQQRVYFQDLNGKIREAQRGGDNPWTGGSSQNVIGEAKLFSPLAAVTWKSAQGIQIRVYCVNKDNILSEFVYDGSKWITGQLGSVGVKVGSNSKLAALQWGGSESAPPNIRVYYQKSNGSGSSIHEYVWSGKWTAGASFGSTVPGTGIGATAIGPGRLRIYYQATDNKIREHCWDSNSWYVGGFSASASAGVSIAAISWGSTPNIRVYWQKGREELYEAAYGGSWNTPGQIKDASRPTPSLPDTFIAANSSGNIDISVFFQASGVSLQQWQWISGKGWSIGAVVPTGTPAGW", 2.6),
]
